# assay.overview: cAMP Responsive Elements (CRE) small molecule agonists, cell-based qHTS assay: qHTS cell viability counter screen (AID 2060914);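 also: viability read after 3 h of compound exposure; nearly all actives have a fitted effect of over 50% in size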
# conditions.used: CRE-bla HEK293T viability, CellTiter-Glo luminescence, 5 h; series mostly up to 92.4 µM
Records with an inconclusive call do not appear. Active and inactive are the calls of the source. Calls follow the shape of the dose curve; as a rule, active = well fitted cell-killing curve with a large enough effect in the repeat runs; inconclusive = weak or mixed curves, or effect the other way; inactive = flat fitted curve, though single readings scatter.
measured.endpoint: outcome

// below: answered compounds
[
  {
    "compound": "CCc1cc(OC)c(C[C@H](C)N)cc1OC",
    "outcome": "inactive"
  },
  {
    "compound": "ClC1=C(Cl)C2(Cl)C(CBr)CC1(Cl)C2(Cl)Cl (stereo not given)",
    "outcome": "inactive"
  },
  {
    "compound": "Clc1cccc2ccccc12",
    "outcome": "inactive"
  },
  {
    "compound": "N#CC(C#N)=Cc1ccc(O)c(O)c1",
    "outcome": "inactive"
  },
  {
    "compound": "COCCOCCO",
    "outcome": "inactive"
  },
  {
    "compound": "CCN(CC)C(=S)S",
    "outcome": "inactive"
  }
]

I have this compound here, Cn1cc[n+](C)c1 (tested in a mixture with another compound) , and I need its recorded outcome.
inactive

I have this compound here, CC(C)c1ccc(OP(=O)(Oc2ccc(C(C)C)cc2)Oc2ccc(C(C)C)cc2)cc1 , and I need its recorded outcome.
inactive

I have this compound here, CCOP(=S)(OCC)OP(=S)(OCC)OCC , and I need its recorded outcome.
inactive
